Sourced from paper PMC6681697

- System: LNCaP xenografts
- Procedure Text: Ex vivo biodistribution and blocking studies in mice bearing LNCaP xenografts
- Assay Setup: 1 h after injection, unblocked
So I've got a bunch of molecules here, and I need their fat uptake values.

*Q* Note down fat uptake recorded for C[N+](C)(Cc1cn(CC(=O)N[C@@H](CCC(=O)O)C(=O)NCCCC[C@H](NC(=O)[C@H](CCC(=O)O)NC(=O)Cn2cc(C[N+](C)(C)C[B-](F)(F)F)nn2)C(=O)NC[C@H]2CC[C@H](C(=O)N[C@@H](Cc3ccc4ccccc4c3)C(=O)NCCCC[C@H](NC(=O)N[C@@H](CCC(=O)O)C(=O)O)C(=O)O)CC2)nn1)C[B-](F)(F)F [^18F-8]
*A* 0.80 ± 0.28 %ID/g

*Q* Note down fat uptake recorded for O=C(O)CCC(NC(=O)NC(CCCCNC(=O)c1ccc([18F])nc1)C(=O)O)C(=O)O (stereo not drawn) [^18F-DCFPyL, reference compound]
*A* 1.05 ± 0.64 %ID/g

*Q* Note down fat uptake recorded for O=C(O)CC[C@H](NC(=O)N[C@@H](CCCCNC(=O)c1ccc(Cn2cc(C[n+]3ccc([B-](F)(F)F)cc3)nn2)nc1)C(=O)O)C(=O)O [^18F-4]
*A* 1.05 ± 0.49 %ID/g

*Q* Note down fat uptake recorded for C[N+](C)(Cc1ccc(C(=O)NCCCC[C@H](NC(=O)N[C@@H](CCC(=O)O)C(=O)O)C(=O)O)cc1)C[B-](F)(F)F [^18F-1]
*A* 0.99 ± 0.39 %ID/g

*Q* Note down fat uptake recorded for C[N+](C)(Cc1cn(CC(=O)NCCOCCOCCC(=O)N[C@@H](Cc2ccc3ccccc3c2)C(=O)NCCCC[C@H](NC(=O)N[C@@H](CCC(=O)O)C(=O)O)C(=O)O)nn1)C[B-](F)(F)F [^18F-7]
*A* 0.27 ± 0.14 %ID/g

*Q* Note down fat uptake recorded for C[N+](C)(Cc1cn(CC(=O)NC[C@H]2CC[C@H](C(=O)N[C@@H](Cc3ccc4ccccc4c3)C(=O)NCCCC[C@H](NC(=O)N[C@@H](CCC(=O)O)C(=O)O)C(=O)O)CC2)nn1)C[B-](F)(F)F [^18F-5]
*A* 0.83 ± 0.33 %ID/g
